- conditionsUsed: in ethanol, 317.95 K
experimentalEndpoint: solubility (mole fraction)
One number for each entry.

Report solubility (mole fraction) for O=C([O-])c1ccccc1.[K+] please.
0.00244

###

- conditionsUsed: in DMF, 312.85 K
experimentalEndpoint: solubility (mole fraction)

For O=C([O-])c1ccccc1.[K+] , what is its reported solubility (mole fraction)?
0.000722

###

- conditionsUsed: in isobutanol, 287.95 K
experimentalEndpoint: solubility (mole fraction)
Give bare numbers.

# lookup: solubility (mole fraction) of O=C([O-])c1ccccc1.[K+]
0.000284

###

- conditionsUsed: in DMF, 317.95 K
experimentalEndpoint: solubility (mole fraction)

Look up solubility (mole fraction): O=C([O-])c1ccccc1.[K+]
0.000778
